Values compiled from patent US20240400689A1.

Reported FACS MFI by item:
# SYSTEM_NAME: T1, human CD276 protein (human, UniProt Q5ZPR3 29-534)
# T1 construct: whole, on cells; for SKOV3 and the other cancer lines the protein is the cells' own; also called B7-H3; B7H3
# T1 sequence (looked up): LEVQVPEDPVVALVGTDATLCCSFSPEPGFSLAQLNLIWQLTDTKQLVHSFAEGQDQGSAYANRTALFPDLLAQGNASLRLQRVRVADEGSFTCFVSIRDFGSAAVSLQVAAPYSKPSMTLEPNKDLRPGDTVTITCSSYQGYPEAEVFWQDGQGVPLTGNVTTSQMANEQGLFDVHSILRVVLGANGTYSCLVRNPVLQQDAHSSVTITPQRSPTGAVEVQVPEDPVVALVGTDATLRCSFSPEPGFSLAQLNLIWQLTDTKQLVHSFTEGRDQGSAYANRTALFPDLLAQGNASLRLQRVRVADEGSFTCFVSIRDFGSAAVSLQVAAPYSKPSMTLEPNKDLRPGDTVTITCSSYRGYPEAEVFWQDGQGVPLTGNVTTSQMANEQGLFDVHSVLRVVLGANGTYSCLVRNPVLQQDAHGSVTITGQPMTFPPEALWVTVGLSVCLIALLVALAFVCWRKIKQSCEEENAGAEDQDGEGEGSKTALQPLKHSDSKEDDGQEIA
# ASSAY_SUMMARY: FACS on CHO-S-hCD276 cells
The response must contain the number and no unit.

For orientation, consider the following solved cases.
>  <BINDER>
15-G1-D1-E3 (antibody, V domains shown, mouse monoclonal antibody (hybridoma)) VH: QVQLQQPGAELVKPGTSVKLSCKASGYTFTSYWIHWVKQRPGQGLEWIGMIHPKSGTVDYNEKFKSKATLTADKSSNTAYMQLSSLTSEASVVYYCARGENYDYRPQFVYWGQGTLVTVSA VL: QLVLTQSSSASFSLGASAKLTCTLSSQHSTYTIEWYQQQPLKPPKYVMELKKDGSHRTGDGIPDRFSGSSSGADRYLSISNIQPEDEAIYICGVGDTIKEQFVYVFGGGTKVTVL

>  <FACS MFI>
62500

$$$$
>  <BINDER>
8-B4-F5-E11 (antibody, V domains shown, mouse monoclonal antibody (hybridoma)) VH: QVQLQQPGAELVKPGASVKLSCKASGDTFTSYWMHWVKQRPGQGLEWIGMIHPDSGTRNYNEKVMSKATLNVDKSSSTAYLHLSSLTSEDSAVYYCSRSYGSRLAWFAYWGQGTLVTVSA VL: QAVVTQESALTTSPGETVTLTCRSSTGAVTTSNFANWVQEKPDHLFTGLIGGTNNRAPGVPARFSGSLIGDKAALTITGAQTEDEAVYFCALWYTNHFIFGSGTKVTVL

>  <FACS MFI>
40400

$$$$

Turning now to a further record.
# input binder: 20-F8-B5-G2 (antibody, V domains shown, mouse monoclonal antibody (hybridoma)) VH: EVQLQESGPSLVKPSQTLSLTCSVTGDSITSAYWNWIRKFPGNKLEYMGYISNSGSTYYNPSLKSRISITRDTSKNQYYLQLNSVTTEDTGTYYCVRGERYYGYGAYWGQGTLVTVSA VL: DIVMTQATPSVPVTPGESISISCRSSKSLLHSNGNTYLYWFLQRPGQSPQLLIYRMSNLASGVPDRFSGSGSGTAFTLRISRVEAEDVGVYYCMQHLEYPFTFGAGTKLELK ; wanted: its FACS MFI 88800
